Ref: PubChem BioAssay AID651747

Test: thallium flux inhibition in non-induced cells, primary screen, counter-screen for KCNK3 inhibitor project, cell-based, non-induced KCNK3 line, FluxOR thallium, triplicate (AID 651747);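 also: host cells are CHO cells without KCNK3 induction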
Settings: non-induced KCNK3 parental cells, at 10 µM
Screen size: about 2,400 compounds; about 950 (40%) were called active.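 The calls were made as follows: active = thallium flux ratio, averaged over three wells, more than 5 SD below the buffer control mean; inactive = the rest.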 Not all results are given here.
Give your call using only these classes: active, inactive

Task item: Hi, sorry to bother you, what did the test record for `C=CCSc1nsc(NC(=O)Nc2cccc(C(C)=O)c2)n1` ?
Reply: inactive

Task item: Similarly, `CC(=O)N(C1=C(Cl)C(=O)c2ccccc2C1=O)c1ccc(C(=O)O)cc1` ?
Reply: active

Task item: Similarly, COc1ccc(C2Nc3ccccc3C(=O)N2Cc2ccccc2)cc1Cn1nnc2ccccc21 (stereo not drawn) ?
Reply: active

Task item: Similarly, `Cc1ccc(S(=O)(=O)NCc2cn3ccsc3n2)c(C)c1` ?
Reply: inactive

Task item: Similarly, `CCOc1ccccc1Oc1cn[nH]c1-c1ccc(OC)cc1O` ?
Reply: inactive

* * *

Experiment: thallium flux inhibition in non-induced cells, primary screen, counter-screen for KCNK3 inhibitor project, cell-based, non-induced KCNK3 line, FluxOR thallium, triplicate (AID 651747);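 also: host cells are CHO cells without KCNK3 induction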;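 as to thallium flux ratio (lower = more inhibition): ratio is peak minus trough fluorescence over baseline then normalized to buffer controls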
Settings: non-induced KCNK3 parental cells, at 10 µM; hits give low values
The campaign covered roughly 2,400 compounds. About 950 (40%) were called active. The list is a sample of the results.
experimental-readout: thallium flux ratio (lower = more inhibition)

Completed entries (count: 10):
O=C(c1cc(-c2ccc(O)cc2)on1)N1CCCc2ccccc21 :: inactive
O=C(CC1NCCc2ccccc21)Nc1cccc(Cl)c1 (stereo unspecified) :: inactive
CSc1nnc2c(n1)OC(c1ccsc1)N(C(C)=O)c1ccccc1-2 (stereo unspecified) :: inactive
COc1ccc2c(c1)C(c1cccs1)=NNC(c1cccnc1)=N2 :: inactive
O=C(Nn1c(SCc2ccc([N+](=O)[O-])cc2)nc2ccccc2c1=O)c1ccc(F)cc1 :: 0.136 (active)
COC(=O)c1ccc(COC(=O)C2CCN(S(=O)(=O)c3c(Cl)cccc3Cl)CC2)o1 :: inactive
CCCOc1ccc2c3c(c(=O)oc2c1OCCC)CCC3 :: 0.158 (active)
FC(F)(F)c1cccc(NC(=S)Nc2cccc(Cl)c2)c1 :: 0.128 (active)
[O-][n+]1ccc(OCc2ccccc2)cc1 :: inactive
COc1cccc(COc2ccc(N(C)S(=O)(=O)c3ccccc3)cc2)c1 :: 0.109 (active)

Task item: Given `Cc1ccc(NC(=O)COC(=O)CNC(=O)c2ccc(Cl)cc2Cl)cc1S(=O)(=O)N1CCOCC1` , state its recorded thallium flux ratio (lower = more inhibition).
Reply: inactive

* * *

Test: thallium flux inhibition in non-induced cells, primary screen, counter-screen for KCNK3 inhibitor project, cell-based, non-induced KCNK3 line, FluxOR thallium, triplicate (AID 651747);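 also: host cells are CHO cells without KCNK3 induction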
Details: non-induced KCNK3 parental cells, at 10 µM
Among all 2,400 compounds or so, about 950 (40%) were called active.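 Rule for the calls: active = thallium flux ratio, averaged over three wells, more than 5 SD below the buffer control mean; inactive = the rest.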 The list is a sample of the results.
Give your call using only these classes: yes = active, no = inactive

// below: answered compounds
CCC(C)(C)n1nnnc1C(c1cccs1)N1CCN(c2nc3ccccc3s2)CC1 (stereo unspecified) :: yes
C=CCSc1nnc(N2C(=O)C(O)=C(C(=O)c3ccco3)C2c2ccc(F)cc2)s1 (stereo unspecified) :: yes
COc1ccc(C(C)=O)cc1COc1ccc(Cl)c(C)c1 :: yes

Task item: Hi, sorry to bother you, what did the test record for COc1ccccc1C(c1nnnn1C(C)(C)C)N1CCN(Cc2ccccc2)CC1 (stereo unspecified) ?
Reply: no

Task item: Similarly, `N#Cc1nc(Cc2cccc3ccccc23)oc1NCc1ccc2c(c1)OCO2` ?
Reply: yes

Task item: Similarly, `Cc1cc(C)c(C#N)c(SCc2ccc3c(c2)OCO3)n1` ?
Reply: yes
